Tested on: Mus musculus
experiment description: Antidepressant activity in ip dosed mouse assessed as stimulation of locomotor activity relative to cocaine
Assay type: functional
The molecules listed here are annotated with their Activity.
readout type: Activity (%)

> print(dat)
                                   molecule  system.tested  meas.value
1  CC(C)CC(NC(C)(C)C)C(=O)c1cccc(Cl)c1 (configuration not stated)   Mus musculus          89
2  CC(NC(C)(C)C)C(=O)c1ccc(F)c(F)c1 (configuration not stated)   Mus musculus          58
3  CC(C(=O)c1cccc(Cl)c1)N(C)C(C)(C)C (configuration not stated)   Mus musculus          95
4  CC(C(=O)c1cccc(Cl)c1)N1CCCCC1 (configuration not stated)   Mus musculus          45
5  Cc1cc(C(=O)C(C)NC(C)(C)C)ccc1Br (configuration not stated)   Mus musculus          36
6  CCN(CC)C(C)C(=O)c1cccc(Cl)c1 (configuration not stated)   Mus musculus          90
7  CC(NC1CC1)C(=O)c1cccc(Cl)c1 (configuration not stated)   Mus musculus          82

The origin of these recorded values is ChEMBL document CHEMBL1156106.
